Tested on: AADH
Test: Effect of metal ions on the enzyme activity
Format: biochemical, Gluconobacter oxydans DSM No. 4025
Conditions: standard DCIP/PMS assay
attributeMeasured: effect of metal ions on the AADH enzyme activity

# count of solved cases: 4
{"compound": "[Mn+2] [Mn^2+]", "assayResult": "strong inhibitors"}
{"compound": "[Cu+2] [Cu^2+]", "assayResult": "strong inhibitors"}
{"compound": "[Mg+2] [Mg^2+]", "assayResult": "did not affect"}
{"compound": "[Ca+2] [Ca^2+]", "assayResult": "did not affect"}

Please supply the value of reported effect of metal ions on the AADH enzyme activity for the item [Fe+3] [Fe^3+]
strong inhibitors

// data source = patent US5916785A
